Where do these numbers come from? They come from patent US20070244048A1.

# tested_target: rat NMUR2 (rat, UniProt Q9ESQ4 1-395)
# Sequence (Q9ESQ4 whole entry): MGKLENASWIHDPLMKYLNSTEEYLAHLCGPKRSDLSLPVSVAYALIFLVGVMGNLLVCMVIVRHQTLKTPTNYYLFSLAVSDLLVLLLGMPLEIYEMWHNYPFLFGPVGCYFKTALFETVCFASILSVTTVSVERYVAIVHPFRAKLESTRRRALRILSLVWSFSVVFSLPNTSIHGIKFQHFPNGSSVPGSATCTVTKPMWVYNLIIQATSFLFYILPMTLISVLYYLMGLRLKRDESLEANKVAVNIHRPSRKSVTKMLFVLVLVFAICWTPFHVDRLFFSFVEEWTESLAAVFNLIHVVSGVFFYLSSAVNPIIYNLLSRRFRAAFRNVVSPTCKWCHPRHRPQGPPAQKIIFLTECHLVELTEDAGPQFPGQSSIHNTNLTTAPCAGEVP
# test: cell-based or functional assay
*: point of attachment. Cholesteroyl = cholesterol linked to a cysteine residue via the side-chain thiol; Succinimide(1-Et,3-yl) = CCN1C(=O)CC(*)C1=O; Palmitoyl = CCCCCCCCCCCCCCCC(=O)*
property_measured: EC50 (FLIPR) (nM)

> print(dat)
                                     binder  endpoint.result
1   Ac-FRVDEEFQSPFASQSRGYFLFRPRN-NH2 [NMU2]              2.2
2   Ac-C(Cholesteroyl)GYFLFRPRN-NH2 [NMU11]             1000
3  Palmitoyl-C(Succinimide(1-Et,3-yl))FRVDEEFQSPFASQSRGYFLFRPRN-NH2 [NMU24]              986
